Attribution: the supplement of paper PMC3334620

- system.tested: Ste12 (UniProt P13574)
- Sequence (P13574 whole entry): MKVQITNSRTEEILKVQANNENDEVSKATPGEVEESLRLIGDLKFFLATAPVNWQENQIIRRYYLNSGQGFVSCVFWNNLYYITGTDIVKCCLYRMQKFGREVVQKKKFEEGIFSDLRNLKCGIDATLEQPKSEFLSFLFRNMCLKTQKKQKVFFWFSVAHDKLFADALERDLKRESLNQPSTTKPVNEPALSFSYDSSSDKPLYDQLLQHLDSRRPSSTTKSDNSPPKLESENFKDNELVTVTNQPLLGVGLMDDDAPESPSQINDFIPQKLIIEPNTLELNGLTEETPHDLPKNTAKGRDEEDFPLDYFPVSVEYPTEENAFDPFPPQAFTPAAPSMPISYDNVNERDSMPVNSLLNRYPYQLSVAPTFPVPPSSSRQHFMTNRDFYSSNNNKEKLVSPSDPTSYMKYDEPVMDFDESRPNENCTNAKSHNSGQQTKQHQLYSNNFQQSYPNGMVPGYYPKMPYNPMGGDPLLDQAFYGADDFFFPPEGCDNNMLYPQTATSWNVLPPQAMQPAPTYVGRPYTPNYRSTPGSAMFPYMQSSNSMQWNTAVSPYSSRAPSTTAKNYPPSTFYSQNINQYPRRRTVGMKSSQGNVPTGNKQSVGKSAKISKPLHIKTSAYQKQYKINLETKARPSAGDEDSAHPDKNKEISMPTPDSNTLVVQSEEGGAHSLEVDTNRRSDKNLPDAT
- experimental.details: PBM E-score (8-mer binding enrichment) (E-score (-0.5 to 0.5)); higher = stronger / more preferred TF binding
- reported.conditions: protein concentration: 200 nM; construct: GST-DNA-binding domain
The full ranking holds about 33,000 sequences; the median of “E-score (-0.5 to 0.5)” is about -0.01, and the highest 2% start at about 0.26. The list comes from a sample in which the highest values are over-represented; it also holds close analogues and randomly drawn sequences.
Using PBM E-score as the sorting value, the categories are lowest = under 0.02, middle = from 0.02 up to 0.2, highest = 0.2 and over

[[record]]
sequence_code = "CCATACCC"
answer_label = "middle"

[[record]]
sequence_code = "ATCCGAAA"
answer_label = "middle"

[[record]]
sequence_code = "TATGGGAA"
answer_label = "middle"

[[record]]
sequence_code = "GCTGAAGC"
answer_label = "lowest"

[[record]]
sequence_code = "AACCTAAA"
answer_label = "highest"

[[record]]
sequence_code = "GCAAAGCC"
answer_label = "lowest"

[[record]]
sequence_code = "TTCCGAAA"
answer_label = "highest"

[[record]]
sequence_code = "ATAGTCAT"
answer_label = "lowest"

[[record]]
sequence_code = "AGATTAAT"
answer_label = "middle"

[[record]]
sequence_code = "GCTGAAAC"
answer_label = "highest"

[[record]]
sequence_code = "AAAAAACA"
answer_label = "highest"

[[record]]
sequence_code = "AAATCTTC"
answer_label = "middle"

[[record]]
sequence_code = "CGCTTCGA"
answer_label = "lowest"

[[record]]
sequence_code = "CCTGAAAA"
answer_label = "middle"

[[record]]
sequence_code = "CCTCTTGC"
answer_label = "middle"

[[record]]
sequence_code = "GAAAAACA"
answer_label = "highest"

[[record]]
sequence_code = "AGAGAGGG"
answer_label = "lowest"

[[record]]
sequence_code = "AGAGCCCC"
answer_label = "lowest"

[[record]]
sequence_code = "ACGTTTCT"
answer_label = "middle"

[[record]]
sequence_code = "CCTCGTTA"
answer_label = "middle"

[[record]]
sequence_code = "ATAAAACA"
answer_label = "highest"

[[record]]
sequence_code = "AGTCCACA"
answer_label = "lowest"

[[record]]
sequence_code = "GCGTTTGA"
answer_label = "middle"

[[record]]
sequence_code = "CCAAGGGC"
answer_label = "lowest"

[[record]]
sequence_code = "ACCGTGCT"
answer_label = "lowest"

[[record]]
sequence_code = "ATATTAAA"
answer_label = "highest"

[[record]]
sequence_code = "GCGTTTCC"
answer_label = "middle"

[[record]]
sequence_code = "GTGTACAC"
answer_label = "lowest"

[[record]]
sequence_code = "CTAAAACC"
answer_label = "middle"

[[record]]
sequence_code = "GTCCGAAA"
answer_label = "highest"

[[record]]
sequence_code = "TAAAAACA"
answer_label = "highest"

[[record]]
sequence_code = "CCGCAAGC"
answer_label = "lowest"

[[record]]
sequence_code = "ACGCTAGA"
answer_label = "lowest"

[[record]]
sequence_code = "ACGGGCCC"
answer_label = "lowest"

[[record]]
sequence_code = "ATATTAGA"
answer_label = "lowest"

[[record]]
sequence_code = "ATATTAAT"
answer_label = "highest"

[[record]]
sequence_code = "CAACGATA"
answer_label = "middle"

[[record]]
sequence_code = "CGTTCTCA"
answer_label = "middle"

[[record]]
sequence_code = "AAGTACGT"
answer_label = "lowest"

[[record]]
sequence_code = "AAACGATA"
answer_label = "highest"

[[record]]
sequence_code = "ATAAAACC"
answer_label = "highest"

[[record]]
sequence_code = "ATAAAAAC"
answer_label = "middle"

[[record]]
sequence_code = "TAACGATA"
answer_label = "middle"

[[record]]
sequence_code = "TGACCTCA"
answer_label = "lowest"

[[record]]
sequence_code = "CTAAAACA"
answer_label = "highest"

[[record]]
sequence_code = "CTATTAAA"
answer_label = "highest"

